Values compiled from PubChem BioAssay (EPA / NIEHS).

- protocolSummary: CCTE_Shafer_MEA_acute_burst_number: CCTE's Neural Acute Assay for Single-Electrode Bursts, Shafer Lab (AID 2284013)
Calls of active or inactive are those of the source. The calls were made as follows: active = hit-call score of the fitted dose curve at least 0.9, where 1 is the maximum; inactive = score below 0.9.
The reply should be one of these categories: TRUE (active), FALSE (inactive)

Q: Fill in: this test's call for O=C1O[C@H]([C@@H](O)CO)C(O)=C1O is ___
Ans: FALSE

Q: Next: C[C@]12CC[C@@H]3c4ccc(O)cc4CC[C@H]3[C@@H]1CC[C@H]2O
Ans: FALSE

Q: Repeat with O=c1[nH]sc2ccccc12
Ans: FALSE

Q: Cool, now COc1cc(C(=O)NC2CCN(C)CC2)ccc1Nc1ncc2c(n1)N(C1CCCC1)CC(F)(F)C(=O)N2C
Ans: FALSE

Q: Record: c1ccc2n[nH]nc2c1
Ans: FALSE

Q: Okay, and NC(=O)c1nc(-c2cccc(-c3cc(F)ccc3OCC(F)(F)C(F)(F)F)c2)n[nH]1 ?
Ans: TRUE

Q: Likewise for CC(=O)N1CCN(c2ccc(OC[C@H]3CO[C@](Cn4ccnc4)(c4ccc(Cl)cc4Cl)O3)cc2)CC1 ?
Ans: FALSE

Q: Moving on to the next compound: CN1C(=O)CC[C@H]1c1cccnc1
Ans: FALSE

Q: Same lookup for CCCCCCCCOC(=O)c1cc(O)c(O)c(O)c1 , please.
Ans: TRUE

Q: What about CC(O)CC(C)(C)O (configuration not stated) ?
Ans: FALSE

Q: Also need CC(C)(c1cc(Br)c(O)c(Br)c1)c1cc(Br)c(O)c(Br)c1 , thanks.
Ans: FALSE

Q: Now the same for CCCCCCCCCCCCO
Ans: FALSE

Q: Also CCN(Cc1cccc(S(=O)(=O)O)c1)c1ccc(C(=C2C=CC(=[N+](CC)Cc3cccc(S(=O)(=O)O)c3)C=C2)c2ccccc2S(=O)(=O)[O-])cc1 , if possible.
Ans: FALSE

Q: What do we get for CN(C[C@@H](CC[N+]12CCC(C3CCCCC3)(CC1)CC2)c1ccc(Cl)c(Cl)c1)C(=O)c1cc(C(F)(F)F)cc(C(F)(F)F)c1 ?
Ans: TRUE

Q: Now the compound CC[C@@H]1C[C@H](N(Cc2cc(C(F)(F)F)cc(C(F)(F)F)c2)C(C)=O)c2cc(C(F)(F)F)ccc2N1C(=O)OC(C)C
Ans: FALSE

Q: Please give the result for O=C(O)c1ccccc1-n1cc(C(=O)O)c(=O)c2cc(Nc3c(F)cc(F)cc3Cl)c(Cl)cc21 too.
Ans: FALSE

Q: Try this compound too: CO[C@H]1/C=C/O[C@@]2(C)Oc3c(C)c(O)c4c(O)c(c(/C=N/N5CCN(C)CC5)c(O)c4c3C2=O)NC(=O)/C(C)=C\C=C\[C@H](C)[C@H](O)[C@@H](C)[C@@H](O)[C@@H](C)[C@H](OC(C)=O)[C@@H]1C
Ans: FALSE

Q: // next record Cc1cn([C@H]2C[C@H](N=[N+]=[N-])[C@@H](CO)O2)c(=O)[nH]c1=O
Ans: FALSE

Q: Queued: CN(C)C(=O)C1(N2CCCCC2)CCN(CC[C@@]2(c3ccc(Cl)c(Cl)c3)CN(C(=O)c3ccccc3)CCO2)CC1
Ans: TRUE

Q: Also Clc1ccccc1C(c1ccccc1)(c1ccccc1)n1ccnc1 , if possible.
Ans: TRUE

Q: Would you kindly repeat that for CC/C(=C(/CC)c1ccc(O)cc1)c1ccc(O)cc1 ?
Ans: FALSE

Q: # repeat for OC12N=C(c3ccccc3)SC1Cc1cc(Cl)ccc12 (configuration not stated)
Ans: TRUE
